Target: human mGlu2 receptor (Homo sapiens)
Construct: expressed in transfected cells; host or cells: CHO cells
Sequence (Q14416 19-872): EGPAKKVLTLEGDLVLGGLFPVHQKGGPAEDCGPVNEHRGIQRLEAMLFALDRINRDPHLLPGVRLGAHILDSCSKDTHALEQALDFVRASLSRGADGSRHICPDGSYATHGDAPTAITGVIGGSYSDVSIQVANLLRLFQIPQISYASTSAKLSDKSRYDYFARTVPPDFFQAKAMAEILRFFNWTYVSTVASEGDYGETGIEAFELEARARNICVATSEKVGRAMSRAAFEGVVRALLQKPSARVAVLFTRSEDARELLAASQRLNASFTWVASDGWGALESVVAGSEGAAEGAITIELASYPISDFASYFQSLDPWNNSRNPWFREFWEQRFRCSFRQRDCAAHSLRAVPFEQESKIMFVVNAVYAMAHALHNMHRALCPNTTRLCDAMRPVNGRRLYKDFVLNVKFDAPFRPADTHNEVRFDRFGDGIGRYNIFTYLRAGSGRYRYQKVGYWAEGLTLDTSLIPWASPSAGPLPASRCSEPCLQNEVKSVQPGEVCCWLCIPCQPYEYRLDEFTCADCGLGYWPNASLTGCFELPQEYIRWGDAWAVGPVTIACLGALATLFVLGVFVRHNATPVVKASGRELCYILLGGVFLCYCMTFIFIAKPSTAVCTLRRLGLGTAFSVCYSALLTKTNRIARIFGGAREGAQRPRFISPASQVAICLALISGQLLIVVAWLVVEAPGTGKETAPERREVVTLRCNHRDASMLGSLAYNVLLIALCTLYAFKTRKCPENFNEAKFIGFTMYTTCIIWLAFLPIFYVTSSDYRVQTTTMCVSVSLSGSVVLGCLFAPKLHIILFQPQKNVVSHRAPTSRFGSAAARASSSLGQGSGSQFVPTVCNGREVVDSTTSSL
Assay: [35S]GTPγS binding assay (mGluR2 negative allosteric modulation, glutamate ~EC80 60 μM)
Assay type: biochemical
Settings: maximal % inhibition relative to the control glutamate response (EC80 glutamate); read-out: GTPγS-hmGluR2 anGT Emax
assay_endpoint: Emax (%)
Please give a number only; it is taken to be in %.

The reported human mGlu2 receptor (Homo sapiens) Emax of COc1cc(C(=O)Nc2cnn3c2C(=O)N(c2ccc(C(F)(F)F)cc2)C[C@@H]3C)ccn1 [Co. No. 47] is 101

Kindly note: human mGlu2 receptor (Homo sapiens), Cc1cnc(N)c(C(=O)Nc2cnn3c2C(=O)N(c2ccc(Cl)c(Cl)c2)C[C@@H]3C)c1 [Co. No. 199] , Emax value reported: 109

Record for C[C@H]1CN(c2ccc(C(F)(F)F)cc2)C(=O)c2c(NC(=O)c3ccccc3)cnn21 [Co. No. 16] under target or system human mGlu2 receptor (Homo sapiens): Emax reported as 108

Item C[C@H]1CN(c2ccc(C(F)(F)F)cc2)C(=O)c2c(NC(=O)c3ccc(N)cn3)cnn21 [Co. No. 68] was tested on human mGlu2 receptor (Homo sapiens); the reported Emax is 107

Entry COc1cc(N2C[C@H](C)n3ncc(NC(=O)c4cncc(F)c4)c3C2=O)ccc1C(F)(F)F [Co. No. 116] ; assay system human mGlu2 receptor (Homo sapiens); Emax recorded at 104

Reported Emax (human mGlu2 receptor (Homo sapiens)) for entry Cc1cncc(C(=O)Nc2cnn3c2C(=O)N(c2ccc(Cl)c(Cl)c2)C[C@@H]3C)c1 [Co. No. 108] is 109

Per the reported human mGlu2 receptor (Homo sapiens) data, C[C@@H]1CN(c2ccc(C(F)(F)F)cc2)C(=O)c2c(NC(=O)c3cccnc3)cnn21 [Co. No. 188] has Emax of 105

Fill in: human mGlu2 receptor (Homo sapiens) Emax for COCc1cncc(C(=O)Nc2cnn3c2C(=O)N(c2ccc(C(F)(F)F)cc2)C[C@@H]3C)c1 [Co. No. 138] = 106

* * *

Target: human mGlu2 receptor (Homo sapiens)
Construct: expressed in transfected cells; host or cells: CHO cells
Assay: [35S]GTPγS binding assay (mGluR2 negative allosteric modulation, glutamate ~EC80 60 μM)
Format: biochemical
Details: maximal % inhibition relative to the control glutamate response (EC80 glutamate); read-out: GTPγS-hmGluR2 anGT Emax
Description: 1) [^35S]GTPγS Binding Assay [^35S]GTPγS Binding Assay Total reaction volume was 200 μl. […] Membrane-bound radioactivity was counted in a Topcount.
assay_endpoint: Emax (%)
A number alone suffices; assume %.

Entry COc1ccc(C(=O)Nc2cnn3c2C(=O)N(c2ccc(C(F)(F)F)cc2)C[C@@H]3C)cc1F [Co. No. 23] ; Emax = 105

Lookup result for COc1cncc(C(=O)Nc2cnn3c2C(=O)N(c2ccc(C(F)(F)F)c(Cl)c2)C[C@@H]3C)c1 [Co. No. 150] ; measured Emax: 107

Please fill in: Emax reported for Cc1cc(C(=O)Nc2cnn3c2C(=O)N(c2ccc(Cl)c(Cl)c2)C[C@@H]3C)ccn1 [Co. No. 171] = 104

The molecule C[C@H]1CN(c2ccc(C(F)(F)F)cc2)C(=O)c2c(NC(=O)c3ccc(C(N)=O)cn3)cnn21 [Co. No. 82] showed Emax equal to 104

Memo: C[C@H]1CN(c2ccc(C(F)(F)F)cc2)C(=O)c2c(NC(=O)c3c[nH]c(N)n3)cnn21 [Co. No. 94] , reported Emax: 98

// Emax value for C[C@H]1CN(c2ccc(C(F)(F)F)cc2)C(=O)c2c(NC(=O)c3cc(N)[nH]n3)cnn21 [Co. No. 84] : 109

# Emax of C[C@H]1CN(c2ccc(C(F)(F)F)cc2)C(=O)c2c(NC(=O)c3cnc(N)s3)cnn21 [Co. No. 74] = 113

Recorded Emax (molecule COc1cccc(C(=O)Nc2cnn3c2C(=O)N(c2ccc(C(F)(F)F)c(OC)n2)C[C@@H]3C)c1 [Co. No. 56] ): 107

COc1ccc(F)c(C(=O)Nc2cnn3c2C(=O)N(c2ccc(C(F)(F)F)cc2)C[C@@H]3C)c1 [Co. No. 37] yielded Emax of 116

For reference, reported Emax for Cc1ccc(C(=O)Nc2cnn3c2C(=O)N(c2ccc(C(F)(F)F)cc2)C[C@@H]3C)cn1 [Co. No. 54] stands at 104

Recorded result, C[C@H]1CN(c2ccc(C(F)(F)F)cc2)C(=O)c2c(NC(=O)c3ccc(C#N)cn3)cnn21 [Co. No. 85] , Emax: 106

Given item COc1ccc(C(=O)Nc2cnn3c2C(=O)N(c2ccc(C(F)(F)F)cc2)C[C@@H]3C)cn1 [Co. No. 42] , the value recorded as its Emax is 105

Quick note, Emax for Cc1cc(C(=O)Nc2cnn3c2C(=O)N(c2ccc(Cl)cc2)C[C@@H]3C)cc(N)n1 [Co. No. 203] landed at 105

Cc1cc(C(=O)Nc2cnn3c2C(=O)N(c2ccc(C(F)(F)F)c(Cl)c2)C[C@@H]3C)ccn1 [Co. No. 12] yielded Emax of 107

Sample COc1ccc(F)cc1C(=O)Nc1cnn2c1C(=O)N(c1ccc(C(F)(F)F)cc1)C[C@@H]2C [Co. No. 10] ; Emax observed: 113

* * *

So I've got a bunch of compounds here, and I need their melting point values.
# unit: °C | format: bare number

Record C[C@H]1CN(c2ccc(C(F)(F)F)cc2)C(=O)c2c(NC(=O)c3cccc(O)c3)cnn21 . Reported melting point: 240.46

Kindly note the recorded melting point for COc1nc(N2C[C@H](C)n3ncc(NC(=O)c4ccccc4)c3C2=O)ccc1C(F)(F)F , which is 201.06

Form: compound = Cc1cccc(C(=O)Nc2cnn3c2C(=O)N(c2ccc(C(F)(F)F)cc2)C[C@@H]3C)n1 ; melting point = 214.97

Reported melting point for Cc1cc(N2C[C@H](C)n3ncc(NC(=O)c4ccccn4)c3C2=O)ccc1C(F)(F)F was 217.95

# melting point of C[C@H]1CN(c2ccc(C(F)F)c(Cl)c2)C(=O)c2c(NC(=O)c3ccc(N)nc3)cnn21 [Co. No. 6] = 177

The reported melting point of the compound Cc1cncc(C(=O)Nc2cnn3c2C(=O)N(c2ccc(C(F)(F)F)cc2)C[C@@H]3C)c1 was 165.21

Entry Cc1cc(N)ncc1C(=O)Nc1cnn2c1C(=O)N(c1ccc(C(F)(F)F)c(Cl)c1)C[C@@H]2C ; melting point = 233.32

Documented melting point of C[C@H]1CN(c2ccc(C(F)(F)F)cc2)C(=O)c2c(NC(=O)c3cccc(S(=O)(=O)F)c3)cnn21 : 161.88

Lab note: COc1cc(N2C[C@H](C)n3ncc(NC(=O)c4cnccn4)c3C2=O)ccc1C(F)(F)F gave melting point of 191.55

The measured melting point associated with COCc1cncc(C(=O)Nc2cnn3c2C(=O)N(c2ccc(C(F)(F)F)cc2)C[C@@H]3C)c1 reads 149.93

// recorded melting point for COc1cncc(C(=O)Nc2cnn3c2C(=O)N(c2ccc(C(F)(F)F)c(C)c2)C[C@@H]3C)c1 : 135.98

So for C[C@H]1CN(c2ccc(C(F)(F)F)cc2)C(=O)c2c(NC(=O)C3CCOCC3)cnn21 , the logged melting point turned out to be 142.94

Entry under test: C[C@H]1CN(c2ccc(C(F)(F)F)cc2)C(=O)c2c(NC(=O)c3ccc(Cl)cn3)cnn21 . Its melting point was 237.65

Memo: C[C@H]1CN(c2ccc(SC(F)(F)F)cc2)C(=O)c2c(NC(=O)c3cccnc3)cnn21 , reported melting point: 110.73

Please fill in: melting point reported for COc1c(F)cccc1C(=O)Nc1cnn2c1C(=O)N(c1ccc(C(F)(F)F)cc1)C[C@@H]2C = 170.98

Recorded result, COc1cnc(C(=O)Nc2cnn3c2C(=O)N(c2ccc(C(F)(F)F)cc2)C[C@@H]3C)cn1 , melting point: 191.33

* * *

assay_endpoint: melting point
Quote the value and follow it with the unit of measurement.

In plain terms, Cc1cc(C(=O)Nc2cnn3c2C(=O)N(c2ccc(C(F)(F)F)cc2)C[C@@H]3C)[nH]n1 [Co. No. 89] has a documented melting point of 285.92 °C

Please fill in: melting point reported for Cc1cc(C(=O)Nc2cnn3c2C(=O)N(c2ccc(C(F)(F)F)cc2)C[C@@H]3C)nc(N)n1 [Co. No. 180] = 265.47 °C

The compound listed as Cc1ncccc1C(=O)Nc1cnn2c1C(=O)N(c1ccc(C(F)(F)F)cc1)C[C@@H]2C [Co. No. 66] shows melting point equal to 120.37 °C

Record C[C@@H]1CN(c2ccc(C(F)(F)F)cc2)C(=O)c2c(NC(=O)c3cccnc3)cnn21 [Co. No. 188] . Reported melting point: 152.2 °C

GET /value?item= Cc1ncc(C(=O)Nc2cnn3c2C(=O)N(c2ccc(C(F)(F)F)cc2)C[C@@H]3C)cn1 [Co. No. 88] &field=melting point returns 231.1 °C

Form: compound = C[C@H]1CN(c2ccc(C(F)(F)F)cc2)C(=O)c2c(NC(=O)c3ccccc3)cnn21 [Co. No. 16] ; melting point = 201.48 °C

melting point in this record for COCc1cccc(C(=O)Nc2cnn3c2C(=O)N(c2ccc(C(F)(F)F)cc2)C[C@@H]3C)c1 [Co. No. 30] : 160.03 °C

Value of melting point reported for the compound C[C@H]1CN(c2ccc(C(F)(F)F)cc2)C(=O)c2c(NC(=O)c3cccc(S(N)(=O)=O)c3)cnn21 [Co. No. 177] is 280.43 °C

# melting point (compound: Cc1cncc(C(=O)Nc2cnn3c2C(=O)N(c2ccc(C(F)(F)F)c(Cl)c2)C[C@@H]3C)c1C [Co. No. 133] ) is 172.8 °C

Data point: COc1cncc(C(=O)Nc2cnn3c2C(=O)N(c2ccc(Cl)cc2)C[C@@H]3C)c1 [Co. No. 137] ; melting point = 153.4 °C

Measured melting point, C[C@H]1CN(c2ccc(S(F)(F)(F)(F)F)cc2)C(=O)c2c(NC(=O)c3cccnc3)cnn21 [Co. No. 175] : 205.19 °C

Per the records, this compound ( C[C@H]1CN(c2ccc(C(F)(F)F)cc2)C(=O)c2c(NC(=O)c3cccnc3)cnn21 [Co. No. 28] ) has melting point equal to 152.59 °C

Lab book: melting point of COCC1CN(c2ccc(C(F)(F)F)c(Cl)c2)C(=O)c2c(NC(=O)c3ccc(N)nc3)cnn21 (stereo not shown) [Co. No. 140] noted as 230.27 °C

Input C[C@H]1CN(c2ccc(C(F)(F)F)cc2)C(=O)c2c(NC(=O)c3ccccc3F)cnn21 [Co. No. 11] . Output melting point: 241.79 °C

Reported melting point ( COc1cccc(C(=O)Nc2cnn3c2C(=O)N(c2ccc(C(F)(F)F)c(OC)n2)C[C@@H]3C)c1 [Co. No. 56] ) = 160.66 °C

Recorded melting point (compound Cc1cnc(N)c(C(=O)Nc2cnn3c2C(=O)N(c2ccc(C(F)(F)F)c(C)c2)C[C@@H]3C)c1 [Co. No. 197] ): 190.13 °C

Record Cc1cc(C(=O)Nc2cnn3c2C(=O)N(c2ccc(Cl)cc2)C[C@@H]3C)cc(N)n1 [Co. No. 203] . Reported melting point: 223.01 °C

Memo: Cc1cc(N2C[C@H](C)n3ncc(NC(=O)c4cccnc4N)c3C2=O)ccc1Cl [Co. No. 208] , reported melting point: 174.32 °C

The measured melting point associated with Cc1cncc(C(=O)Nc2cnn3c2C(=O)N(c2ccc(C(F)(F)F)c(C)c2)C[C@@H]3C)c1 [Co. No. 115] reads 151.53 °C

Memo: Cc1cc(C(=O)Nc2cnn3c2C(=O)N(c2ccc(C(F)(F)F)c(Cl)c2)C[C@@H]3C)c(C)cn1 [Co. No. 158] , reported melting point: 130.79 °C

compound Cc1cc(C(=O)Nc2cnn3c2C(=O)N(c2ccc(C(F)(F)F)c(Cl)c2)C[C@@H]3C)ccn1 [Co. No. 12] , melting point observed: 159.96 °C

GET /value?item= C[C@H]1CN(c2ccc(C(F)(F)F)c(F)c2)C(=O)c2c(NC(=O)c3cnccn3)cnn21 [Co. No. 127] &field=melting point returns 236.55 °C

Given item COc1ncccc1C(=O)Nc1cnn2c1C(=O)N(c1ccc(C(F)(F)F)cc1)C[C@@H]2C [Co. No. 43] , the value recorded as its melting point is 213.83 °C

Value of melting point reported for the compound Cc1cc(C(=O)Nc2cnn3c2C(=O)N(c2ccc(C(F)(F)F)cc2)C[C@@H]3C)no1 [Co. No. 72] is 209.27 °C

compound Cc1cc(N2C[C@H](C)n3ncc(NC(=O)c4ccccc4)c3C2=O)ccc1C(F)(F)F [Co. No. 7] , melting point observed: 154.53 °C

Note to self: melting point recorded for CC(=O)Nc1cnn2c1C(=O)N(c1ccc(C(F)(F)F)cc1)C[C@@H]2C [Co. No. 160] was 142.82 °C

Short answer for Cc1cnc(N)c(C(=O)Nc2cnn3c2C(=O)N(c2ccc(Cl)c(Cl)c2)C[C@@H]3C)c1 [Co. No. 199] : melting point was 220.49 °C

The reported melting point of the compound C[C@H]1CN(c2ccc(C(F)(F)F)cc2)C(=O)c2c(NC(=O)c3ccc(F)cc3)cnn21 [Co. No. 49] was 119.36 °C

Entry C[C@H]1CN(c2ccc(OC(F)(F)F)cc2)C(=O)c2c(NC(=O)c3cccnc3)cnn21 [Co. No. 178] , melting point reported as 125.45 °C

Notebook: COc1cc(N2C[C@H](C)n3ncc(NC(=O)c4ccccn4)c3C2=O)ccc1C(F)(F)F [Co. No. 111] , melting point read as 217.95 °C

The recorded melting point for Cc1nc(C(=O)Nc2cnn3c2C(=O)N(c2ccc(C(F)(F)F)cc2)C[C@@H]3C)co1 [Co. No. 81] is 189.92 °C
